Assay: Mean residence time in Beagle dog at 4.5 mg/kg, po
Assay type: ADME, organism-based, Canis lupus familiaris
Design: dose 4.5 mg/kg, route oral
Conditions: in vivo
Measured Metric: MRT
Mention the unit after the number when you answer.

What value of MRT has been recorded for this entry: "COc1ccc2nccc(NC(=O)[C@]3(O)CC[C@@H](NCc4cc5c(cn4)OCCO5)CC3)c2n1"
9.8 h

###

Assay: Volume of distribution at steady state in Beagle dog at 2.6 mg/kg, iv
Format: ADME, organism-based, Canis lupus familiaris
Set-up: dose 2.6 mg/kg, route intravenous
Details: in vivo, read-out: Vdss
Measured Metric: Vd
Give me the value, and tack the unit on after it.

What value of measured Vd is listed for "COc1ccc2nccc(NC(=O)[C@]3(O)CC[C@@H](NCc4cc5c(cn4)OCCO5)CC3)c2n1" ?
3.7 L/kg

###

Assay: Oral bioavailability in Sprague-Dawley rat at 4.6 mg/kg
Assay type: ADME, organism-based
Conditions: in vivo
Measured Metric: bioavailability (%)
Express the result in % but write the number alone.

Query (compound): "COc1ccc2nccc(NC(=O)[C@]3(O)CC[C@@H](NCc4cc5c(cn4)OCCO5)CC3)c2n1" ; field requested: bioavailability
18

###

Test: Volume of distribution at steady state in cynomolgus monkey at 2.7 mg/kg, iv
Assay type: ADME, organism-based, Macaca fascicularis
Parameters: dose 2.7 mg/kg, route intravenous
Conditions: in vivo, read-out: Vdss
Measured Metric: Vd (L/kg)
# value in L/kg; strip the unit string

Which Vd reading was recorded for the compound "COc1ccc2nccc(NC(=O)[C@]3(O)CC[C@@H](NCc4cc5c(cn4)OCCO5)CC3)c2n1" ?
4.1

###

Assay: AUC in Sprague-Dawley rat at 4.6 mg/kg, po
Format: ADME, organism-based
Parameters: dose 4.6 mg/kg, route oral
Conditions: plasma
Measured Metric: AUC (µg·h/mL)
Form entry: value (µg·h/mL) — number only.

Suppose we examine the compound "COc1ccc2nccc(NC(=O)[C@]3(O)CC[C@@H](NCc4cc5c(cn4)OCCO5)CC3)c2n1" ; what AUC value has been reported?
0.34

###

Experiment: AUC in Beagle dog at 4.5 mg/kg, po
Format: ADME, organism-based, Canis lupus familiaris
Parameters: dose 4.5 mg/kg, route oral
Conditions: plasma
Measured Metric: AUC (ng·h/mL)
I only need the number, in ng·h/mL, no unit after it.

Name the reported AUC value associated with the molecule "COc1ccc2nccc(NC(=O)[C@]3(O)CC[C@@H](NCc4cc5c(cn4)OCCO5)CC3)c2n1"
5700

###

So I've got a bunch of compounds here, and I need their log10(MIC) values.
Tested on: Haemophilus influenzae
Experiment: Antibacterial activity against Haemophilus influenzae H128 after 18 to 24 hrs by broth microdilution technique
Assay type: functional
Lab note - MIC converted to log10 from values in µg/mL.

# query: log10(MIC) of entry "N#Cc1ccc2cccc(NC(=O)[C@@H]3CC[C@@H](NCc4cc5c(cn4)OCCO5)[C@@H](O)C3)c2n1"
-0.30

Please look up its log10(MIC): "COc1ccc2nccc(NC(=O)[C@H]3CC[C@H](NCc4ccc5c(c4)OCCO5)CC3)c2n1"
0.00

Need log10(MIC), item "CO[C@@H]1C[C@H](C(=O)Nc2cccc3ccc(C)nc23)CC[C@H]1NCc1cc2c(cn1)OCCO2"
1.20

What value of log10(MIC) has been recorded for this entry: "COc1ccc2nccc(NC(=O)[C@]3(O)CC[C@@H](NCc4cc5c(cn4)OCCO5)CC3)c2n1"
-0.30

What value of log10(MIC) has been reported for the following compound? "COc1cc(F)c2nccc(NC(=O)[C@]3(O)CC[C@@H](NCc4cc5c(cn4)OCCO5)CC3)c2c1"
0.00

Please give the measured log10(MIC) for this compound: "COc1ccc2nccc(NC(=O)[C@]3(O)CC[C@@H](NCc4cc5c(cn4)OCCO5)CC3)c2c1"
0.00

Recorded log10(MIC) of "Cc1ccc2cccc(NC(=O)[C@]3(O)CC[C@@H](NCc4cc5c(cn4)OCCO5)CC3)c2n1" , please.
0.30

For "COc1ccc2nccc(NC(=O)[C@]3(O)CC[C@@H](NCc4ccc5c(c4)OCCO5)CC3)c2n1" , what is its reported log10(MIC)?
-0.30

May I ask what log10(MIC) has been recorded for "Cc1ccc2cccc(NC(=O)[C@H]3CC[C@H](NCc4cc5c(cn4)OCCO5)CC3)c2n1" ?
0.30

What value of log10(MIC) has been recorded for this entry: "COc1ccc2nccc(NC(=O)[C@H]3CC[C@H](NCc4cc5c(cn4)OCCO5)CC3)c2n1"
-0.60

Give the measured log10(MIC) of "COc1ccc2nccc(NC(=O)[C@]3(O)CC[C@@H](NCc4cnc5c(c4)OCCO5)CC3)c2n1" .
0.30

Consider the compound shown here: "N#Cc1ccc2cccc(NC(=O)[C@]3(O)CC[C@@H](NCc4cc5c(cn4)OCCO5)CC3)c2n1" What is its recorded log10(MIC)?
-0.30

###

Assay: Half life in Sprague-Dawley rat at 2.9 mg/kg, iv
Format: ADME, organism-based
Design: dose 2.9 mg/kg, route intravenous
Conditions: in vivo
Measured Metric: half-life (h)
Report as a plain number; the unit h is understood.

Would you kindly share the measured half-life for "COc1ccc2nccc(NC(=O)[C@]3(O)CC[C@@H](NCc4cc5c(cn4)OCCO5)CC3)c2n1" ?
1

###

Tested on: Staphylococcus aureus
Assay: Antibacterial activity against Staphylococcus aureus WCUH 29 after 18 to 24 hrs by broth microdilution technique
Type: functional
Kindly apply the following: rule met if MIC is less than 0.06 µg/mL, rule not met in every other case.

For this molecule, is MIC lower than 0.06 µg/mL? "COc1ccc2nccc(NC(=O)[C@H]3CC[C@H](NCc4ccc5c(c4)OCCO5)CC3)c2c1"
rule met

Is MIC of "COc1ccc2nccc(NC(=O)[C@]3(O)CC[C@@H](NCc4cnc5c(c4)OCCO5)CC3)c2n1" strictly below 0.06 µg/mL?
rule met

In the record for "N#Cc1ccc2cccc(NC(=O)[C@@H]3CC[C@@H](NCc4cc5c(cn4)OCCO5)[C@@H](O)C3)c2n1" , is MIC less than 0.06 µg/mL?
rule met

# check: MIC < 0.06 µg/mL for "Cc1ccc2cccc(NC(=O)[C@]3(O)CC[C@@H](NCc4cc5c(cn4)OCCO5)CC3)c2n1"
rule not met

Is the reported MIC for "N#Cc1ccc2cccc(NC(=O)[C@]3(O)CC[C@@H](NCc4cc5c(cn4)OCCO5)CC3)c2n1" strictly below 0.06 µg/mL?
rule met

Dear colleague, could you confirm whether MIC of "COc1ccc2nccc(NC(=O)[C@]3(O)CC[C@@H](NCc4cc5c(cn4)OCCO5)CC3)c2c1" falls below 0.06 µg/mL? Thanks.
rule not met

I'd appreciate it if you could check whether "COc1ccc2nccc(NC(=O)[C@]3(O)CC[C@@H](NCc4cc5c(cn4)OCCO5)CC3)c2n1" has MIC smaller than 0.06 µg/mL.
rule met

Check if MIC falls below 0.06 µg/mL for "Cc1ccc2cccc(NC(=O)[C@H]3CC[C@H](NCc4cc5c(cn4)OCCO5)CC3)c2n1" .
rule not met

A record lists "COc1ccc2nccc(NC(=O)[C@H]3CC[C@H](NCc4ccc5c(c4)OCCO5)CC3)c2n1" . Is its MIC below 0.06 µg/mL?
rule met

Confirm or reject: MIC of "CO[C@@H]1C[C@H](C(=O)Nc2cccc3ccc(C)nc23)CC[C@H]1NCc1cc2c(cn1)OCCO2" lies strictly below 0.06 µg/mL
rule not met

Input "COc1ccc2nccc(NC(=O)[C@H]3CC[C@H](NCc4cc5c(cn4)OCCO5)CC3)c2n1" ; condition: MIC strictly below 0.06 µg/mL. Does it hold?
rule met

Record "COc1ccc2nccc(NC(=O)[C@]3(O)CC[C@@H](NCc4ccc5c(c4)OCCO5)CC3)c2n1" : is its MIC strictly below 0.06 µg/mL?
rule met

###

Assay: Blood clearance in Sprague-Dawley rat at 2.9 mg/kg, iv
Assay type: ADME, organism-based
Design: dose 2.9 mg/kg, route intravenous
Measured Metric: clearance (mL/min/kg)
Provide only the numeric value, understood in mL/min/kg.

# input compound: "COc1ccc2nccc(NC(=O)[C@]3(O)CC[C@@H](NCc4cc5c(cn4)OCCO5)CC3)c2n1" ; wanted: its clearance
41.1

###

Assay: Volume of distribution at steady state in Sprague-Dawley rat at 2.9 mg/kg, iv
Type: ADME, organism-based
Design: dose 2.9 mg/kg, route intravenous
Details: in vivo, read-out: Vdss
Measured Metric: Vd
Provide a numeric answer, followed by its unit.

Give the measured Vd of "COc1ccc2nccc(NC(=O)[C@]3(O)CC[C@@H](NCc4cc5c(cn4)OCCO5)CC3)c2n1" .
2.41 L/kg

###

Experiment: Oral bioavailability in cynomolgus monkey at 4.4 mg/kg
Type: ADME, organism-based, Macaca fascicularis
Conditions: in vivo
Measured Metric: bioavailability (%)
Respond with the bare value in %.

Fill in: bioavailability of "COc1ccc2nccc(NC(=O)[C@]3(O)CC[C@@H](NCc4cc5c(cn4)OCCO5)CC3)c2n1" is ___
9
